Record form. Attribute: abundance fitness. Fill in for each entry.
B1: Far upstream element-binding protein 3, residues 75 to 150; numbered along this chain, Q96I24 (parent)
chain: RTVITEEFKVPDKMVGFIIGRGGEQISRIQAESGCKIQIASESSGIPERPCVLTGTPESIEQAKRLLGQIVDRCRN

# Variants of: B1
# method summary: abundance fitness (aPCA) (normalised: wild type 0, dead -1); higher = more abundant; growth selection in yeast, the domain comes from the species named
# measurement setup: Homo sapiens
Answers are plain numbers.

Known results for variants:
- Q38K: -0.022
- V15C: -0.108
- E42W: -0.069
- R1W: -0.2
- P57S: -0.109
- K13L: -0.198

// for each variant in input: emit abundance fitness
1. T56W
2. I39W
3. G55T
4. V52E
5. S59D
6. R49K

Given back:
[-0.332, -0.159, -1.09, -0.073, -0.1, -0.099]

// input: 4 variants below; output: abundance fitness for each
1. G22K
2. R49Q
3. R21Y
4. E61K

Given back:
[-0.007, -0.081, -0.182, -0.026]
